molecular target: KRAS G12D (Homo sapiens (Human), UniProt P01116+P62937, G12D); experiment: Ras-Raf (BRAF RBD) disruption / FRET / MOA assay, KRAS G12D; type: biochemical; conditions: Ras-Raf disruption/FRET/MOA assay; class symbols; read-out: KRAS G12D FRET data IC50
Sequence (P01116-2 other isoform, or with tags, fused parts or gaps G12D): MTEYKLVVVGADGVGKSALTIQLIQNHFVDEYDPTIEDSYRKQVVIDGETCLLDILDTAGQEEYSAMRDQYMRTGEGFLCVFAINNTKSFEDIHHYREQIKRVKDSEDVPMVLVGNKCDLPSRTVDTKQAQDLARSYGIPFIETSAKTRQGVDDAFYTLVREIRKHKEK
Sequence (P62937 whole entry): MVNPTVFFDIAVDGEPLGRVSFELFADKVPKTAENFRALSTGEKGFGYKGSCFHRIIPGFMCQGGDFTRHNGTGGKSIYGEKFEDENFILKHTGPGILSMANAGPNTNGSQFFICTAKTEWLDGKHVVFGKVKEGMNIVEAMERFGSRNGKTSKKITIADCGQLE
pIC50: −log10 of the molar value.
reportedProperty: pIC50

- C=CC(=O)N(C)CCN1CCN(C(=O)N(C)[C@H](C(=O)N[C@H]2Cc3nc(cs3)-c3ccc4c(c3)c(c(-c3cccnc3[C@H](C)OC)n4CC)CC(C)(C)COC(=O)[C@@H]3CCCN(N3)C2=O)C(C)C)CC1 (atropisomer, axis not shown): 5.00 to 6.00
- C=CC(=O)N1CC[C@H](C(=O)N(C)[C@H](C(=O)N[C@H]2Cc3cccc(c3)-c3ccc4c(c3)c(c(-c3cnn(C5CCN(C)CC5)c3[C@H](C)OC)n4CC)CC(C)(C)COC(=O)[C@@H]3CCCN(N3)C2=O)C(C)C)C1: < 5.00

Source listed as patent US11566007B2.
